Reference source: patent US20160297884A1

- TARGET_UNDER_TEST: T1, Cynomolgus monkey BCMA (cynomolgus monkey)
- T1 construct: Soluble analyte in SPR; also called cyBCMA; Cyno BCMA
- TEST_METHOD_NOTES: SPR, IgG immobilised, cyno BCMA analyte
Listed next: entries and their corresponding kon.
# output: bare number, implied unit M⁻¹ s⁻¹

A02_Rd4_6nM_C22 (antibody, V domains shown, IgG) VH: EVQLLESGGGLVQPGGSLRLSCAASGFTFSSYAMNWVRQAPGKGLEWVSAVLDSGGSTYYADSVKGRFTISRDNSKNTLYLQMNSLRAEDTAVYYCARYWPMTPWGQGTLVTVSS VL: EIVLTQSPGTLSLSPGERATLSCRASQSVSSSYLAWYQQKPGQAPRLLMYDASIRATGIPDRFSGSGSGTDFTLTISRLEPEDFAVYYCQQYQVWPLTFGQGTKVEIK : 1.84e+06

[Q] For the binder P5C1_VHVL (antibody, V domains shown, IgG; also called PC1) VH: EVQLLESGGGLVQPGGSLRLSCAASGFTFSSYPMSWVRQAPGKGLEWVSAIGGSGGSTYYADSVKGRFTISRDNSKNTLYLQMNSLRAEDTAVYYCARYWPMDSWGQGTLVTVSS VL: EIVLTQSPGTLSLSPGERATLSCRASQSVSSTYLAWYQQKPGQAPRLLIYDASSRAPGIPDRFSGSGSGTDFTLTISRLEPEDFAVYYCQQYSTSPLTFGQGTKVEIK , what kon is on record?
[A] 3.53e+06
